- Assay Target: T1, human interleukin 12 (human, UniProt P29459 23-219; P29460 23-328)
- T1 construct: heterodimer of p35 and p40 linked by a disulfide bridge; also called hIL-12; IL-12
- T1 sequence (looked up) 1: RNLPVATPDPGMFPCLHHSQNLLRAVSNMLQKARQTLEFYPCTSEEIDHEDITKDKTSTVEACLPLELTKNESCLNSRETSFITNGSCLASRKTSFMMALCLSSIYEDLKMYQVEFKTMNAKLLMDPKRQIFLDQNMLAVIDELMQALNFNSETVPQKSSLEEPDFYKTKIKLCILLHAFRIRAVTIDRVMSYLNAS
- T1 sequence (looked up) 2: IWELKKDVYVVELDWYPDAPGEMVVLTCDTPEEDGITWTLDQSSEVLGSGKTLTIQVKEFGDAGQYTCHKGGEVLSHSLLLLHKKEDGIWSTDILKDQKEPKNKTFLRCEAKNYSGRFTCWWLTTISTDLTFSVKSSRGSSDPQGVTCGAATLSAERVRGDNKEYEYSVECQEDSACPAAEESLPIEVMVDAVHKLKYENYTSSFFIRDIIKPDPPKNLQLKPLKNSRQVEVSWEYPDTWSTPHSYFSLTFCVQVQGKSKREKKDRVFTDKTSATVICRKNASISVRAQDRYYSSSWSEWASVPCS
- Assay Details: SPR (BIAcore)
Endpoint: koff (s⁻¹)

- Binder: "C4 (antibody, V domains shown) VH: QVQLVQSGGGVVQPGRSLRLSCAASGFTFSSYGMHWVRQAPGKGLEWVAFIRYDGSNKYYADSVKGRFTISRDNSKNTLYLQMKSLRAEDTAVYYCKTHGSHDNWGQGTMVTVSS VL: SYVLTQPPSVSGTPGQRVTISCSGGRSNIGSNTVKWYQQLPGTAPKLLIYGNDQRPSGVPDRFSGSKSGTSASLAITGVQAEDEADYYCQSYDRGTPNNSFFGTGTKVTVL"
  Endpoint: "koff"
  Result Number: 0.00323
- Binder: "73-D5 (antibody, V domains shown) VH: QVQLVQSGGGVVQPGRSLRLSCAASGFTFSSYGMHWVRQAPGKGLEWVAFIRYDGSNKYYADSVKGRFTISRDNSKNTLYLQMKSLRAEDTAVYYCTTSGSYDYWGQGTMVTVSS VL: SYVLTQPPSVSGTPGQRVTISCSGGRSNIGSNTVKWYQQLPGTAPKLLIYGNDQRPSGVPDRFSGSKSGTSASLAITGVQAEDEADYYCHSSDSGFTGSRVFGTGTKVTVLG"
  Endpoint: "koff"
  Result Number: 0.00357
